- target.or.test.system: c-Src SH2
- assay.comment: SH2 binding enrichment of the phosphorylated peptide, bacterial display (enrichment ratio); higher = better substrate or ligand; peptides without Tyr show the background
Consider the following sequences and their measured SH2 binding enrichment readings.
// no unit string in output, number only

Some sequences with recorded SH2 binding enrichment:
# sequence.text, SH2 binding enrichment
rows = [
    ("TSIGNYFKPWF [DHCR24_Y299_N294T_YF]", 0.83),
    ("GYITSYREEEQ", 0.49),
    ("EFAAGYNVKFD [GPX4_Y123]", 0.503),
    ("FSMGCYEISLE [HMGCL_Y198_G203E_YF]", 0.347),
    ("IRTIDYRFTVW [IDS_Y497_YF]", 0.528),
    ("TSNQEYLDLSM [FGFR1_Y766]", 0.487),
]

Enter recorded SH2 binding enrichment with c-Src SH2 for VIKSSYQVAKA [CPT1B_Y534_E531K] here.
0.41

GET SH2 binding enrichment where system = c-Src SH2 and item = EFISEFCGEII [EZH2_Y641_Y641F];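 also: peptide library displayed on the E. coli surface as eCPX fusions, selected cells deep-sequenced, score is each peptide's frequency after selection divided by its frequency in the input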
0.743
